Tested on: DU145
Test: Initial cytotoxicity testing (MTT test), DU145
Type: cell-based, human
Conditions: Homo sapiens, DU-145, 72 h, read-out: cytotoxicity DU145
Recorded endpoint: IC50

>  <Compound>
COc1cccc(OC)c1C1=NN(c2c(Cl)cc(Cl)cc2Cl)[C@]2(CC/C=C(\C)CC[C@@H]3[C@@H]2CC3(C)C)C1 [Compound 23a]

>  <Target entity>
DU145

>  <IC50>
< 50 µM

$$$$
>  <Compound>
C/C1=C\CC[C@@]2(CC(Br)=NO2)[C@H]2CC(C)(C)[C@@H]2CC1 [Compound 19a]

>  <Target entity>
DU145

>  <IC50>
> 50 µM

$$$$
>  <Compound>
C=C1CC[C@H]2C(c3cc(Br)ccc3O)=NO[C@]2(C)CC[C@@H]2[C@@H]1CC2(C)C [Compound 18b]

>  <Target entity>
DU145

>  <IC50>
> 50 µM

$$$$
>  <Compound>
COc1cccc(OC)c1C1=NN(c2c(Cl)cc(Cl)cc2Cl)[C@]2(CC[C@H]3C(c4c(OC)cccc4OC)=NN(c4c(Cl)cc(Cl)cc4Cl)[C@]3(C)CC[C@@H]3[C@@H]2CC3(C)C)C1 [Compound 30]

>  <Target entity>
DU145

>  <IC50>
> 50 µM

$$$$
>  <Compound>
COc1ccc(C2=NO[C@]3(CC[C@@H]4C(c5ccc(OC)cc5)=NO[C@@]4(C)CC[C@@H]4[C@@H]3CC4(C)C)C2)cc1 [Compound 26]

>  <Target entity>
DU145

>  <IC50>
> 50 µM

$$$$
>  <Compound>
CC1(C)C[C@H]2[C@H]1CC[C@@]1(C)ON=C(Br)[C@@H]1CC[C@@]21CC(Br)=NO1 [Compound 28]

>  <Target entity>
DU145

>  <IC50>
> 50 µM

$$$$

# compound CC1=CCCC2(CC(c3cc(Br)ccc3O)=NO2)C2CC(C)(C)C2CC1 (stereo not shown) [Compound 18a] ; its IC50 = > 50 µM

// sample C=C1CC[C@H]2C(c3c(OC)cccc3OC)=NN(c3c(Cl)cc(Cl)cc3Cl)[C@]2(C)CC[C@@H]2[C@@H]1CC2(C)C [Compound 23b] , its IC50 was > 50 µM

GET /value?item= C/C1=C\CC[C@@]2(CC(c3ccc(Cl)cc3)=NO2)[C@H]2CC(C)(C)[C@@H]2CC1 [Compound 16a] &field=IC50 returns > 50 µM
